Reference source: the supplement of paper PMC10646978

test system: RAW-Dual (murine macrophage reporter line); test: IRF reporter (Lucia luciferase) activity fold change vs agonist alone; higher = enhanced IRF activity; conditions: modulator concentration 10 µM; agonist: 3'3'-cGAMP 10 ug/mL
Label Satisfied when IRF reporter is at or above 1; otherwise label Not satisfied.

{"COMPOUND": "O=C(O)CN1C(=O)c2cccc3cccc(c23)C1=O", "CLASS": "Not satisfied"}
{"COMPOUND": "O=C(CCCCCl)NN1c2ccccc2CCc2ccccc21", "CLASS": "Not satisfied"}
{"COMPOUND": "CC[C@@H]([C@H](C)O)n1ncn(-c2ccc(N3CCN(c4ccc(OC[C@@H]5CO[C@@](Cn6cncn6)(c6ccc(F)cc6F)C5)cc4)CC3)cc2)c1=O", "CLASS": "Satisfied"}
{"COMPOUND": "Cc1ncc(CC(=O)N2CCC(c3ccccc3Cl)S(=O)(=O)CC2)s1 (stereo unspecified)", "CLASS": "Satisfied"}
{"COMPOUND": "CC(C(=O)O)c1ccc2c(c1)CC(=O)c1ccccc1S2 (stereo unspecified)", "CLASS": "Satisfied"}
{"COMPOUND": "Brc1ccc(-c2nc(-c3ccccc3)cc(N3CCOCC3)n2)cc1", "CLASS": "Not satisfied"}
{"COMPOUND": "Cn1c(=O)c2c(ncn2CC(=O)O)n(C)c1=O", "CLASS": "Not satisfied"}
{"COMPOUND": "CCOC(=O)C1=C(C)NC(=Cc2ccccc2[N+](=O)[O-])C1=O", "CLASS": "Not satisfied"}
{"COMPOUND": "COCC(C)NC(=O)c1ccc(Cl)c(Cl)c1 (stereo unspecified)", "CLASS": "Not satisfied"}
{"COMPOUND": "Cc1ccc(S(=O)(=O)n2cnc3ccccc32)cc1", "CLASS": "Not satisfied"}

---

system: RAW-Dual (murine macrophage reporter line); experiment: IRF reporter (Lucia luciferase) activity fold change vs agonist alone; higher = enhanced IRF activity; conditions: modulator concentration 10 µM; agonist: MPLA […]
REPORTED METRIC: IRF reporter

{"COMPOUND": "OCC(S)CS (stereo unspecified)", "REPORTED METRIC": "IRF reporter", "REPORTED RESULT": 0.912}
{"COMPOUND": "O=C(CC1Sc2ccccc2NC1=O)Nc1ccccc1 (stereo unspecified)", "REPORTED METRIC": "IRF reporter", "REPORTED RESULT": 1.41}
{"COMPOUND": "O=c1c(-n2ccnn2)c[nH]n1-c1cc(N2CCOCC2)ncn1", "REPORTED METRIC": "IRF reporter", "REPORTED RESULT": 1.09}
{"COMPOUND": "CC[C@@]1(O)C(=O)OCc2c1cc1n(c2=O)Cc2cc3c(CN(C)C)c(O)ccc3nc2-1", "REPORTED METRIC": "IRF reporter", "REPORTED RESULT": 3.07}
{"COMPOUND": "CCOC(=O)c1ccc(-c2ccc(C=C(C#N)C(=O)Nc3ccc(F)cc3)o2)cc1", "REPORTED METRIC": "IRF reporter", "REPORTED RESULT": 1.06}
{"COMPOUND": "C/C(O)=C(\\C#N)C(=O)Nc1ccc(C(F)(F)F)cc1", "REPORTED METRIC": "IRF reporter", "REPORTED RESULT": 1.4}
{"COMPOUND": "O=C(NC(=S)Nc1ccc2[nH]c(=O)[nH]c2c1)c1ccc(Cl)cc1", "REPORTED METRIC": "IRF reporter", "REPORTED RESULT": 0.994}
{"COMPOUND": "CN(CC(=O)O)c1nc2ccc(OC(F)(F)F)cc2s1", "REPORTED METRIC": "IRF reporter", "REPORTED RESULT": 0.952}
{"COMPOUND": "COC(=O)C1=CN(CC2CCCO2)C=C(C(=O)OC)C1c1cccc(F)c1 (stereo unspecified)", "REPORTED METRIC": "IRF reporter", "REPORTED RESULT": 1.18}
{"COMPOUND": "O=C(CCCn1nc(-c2ccc(F)cc2)ccc1=O)Nc1cc(Cl)ccc1Cl", "REPORTED METRIC": "IRF reporter", "REPORTED RESULT": 1.11}
{"COMPOUND": "CCN(CC)CCOC(=O)c1ccc(N)cc1.Cl", "REPORTED METRIC": "IRF reporter", "REPORTED RESULT": 1.16}
